Biological target: Ubiquitin-conjugating enzyme E2 N (Homo sapiens);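 also: Dose-response confirmation in a TR-FRET assay detecting UBC13-driven polyubiquitin chain formation, inhibition measured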
Sequence (P61088 whole entry): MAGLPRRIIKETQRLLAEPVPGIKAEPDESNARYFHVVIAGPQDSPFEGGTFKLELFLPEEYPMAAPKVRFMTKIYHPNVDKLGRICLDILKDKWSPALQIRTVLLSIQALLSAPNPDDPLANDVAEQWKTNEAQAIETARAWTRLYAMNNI
Format: functional
Calls of active or inactive are those of the source.
Listed next: entries and their corresponding IC50.

Req: Quick check: IC50 on Ubiquitin-conjugating enzyme E2 N (Homo sapiens), item `Cc1ccc(-c2csc(N3CCN(c4cc5c(cc4Cl)nc(C)n5CCN4CCCCC4)CC3)n2)cc1` ?
Resp: > 20 µM (inactive)

Req: Quick check: IC50 on Ubiquitin-conjugating enzyme E2 N (Homo sapiens), item `CN1CCN(C2CCN(Cc3ccc(O)c4ncccc34)CC2)CC1` ?
Resp: > 20 µM (inactive)

Req: Quick check: IC50 on Ubiquitin-conjugating enzyme E2 N (Homo sapiens), item `CCc1ccc(-c2cc(C(=O)N/N=C/c3ccccn3)[nH]n2)cc1` ?
Resp: > 20 µM (inactive)

Req: Quick check: IC50 on Ubiquitin-conjugating enzyme E2 N (Homo sapiens), item `O=C(NCCCN1CCCCC1)C1CCN(c2ncnc3c2nc2n3CCCCC2)CC1` ?
Resp: > 20 µM (inactive)
